meta.source: paper PMC7996396

- Target or system: dmU1A(F37M/F77M) 7Se-Met (Homo sapiens, UniProt P09012 1-98, Y31H;Q36R;F37M;F77M)
- Sequence (P09012 1-98 Y31H/Q36R/F37M/F77M): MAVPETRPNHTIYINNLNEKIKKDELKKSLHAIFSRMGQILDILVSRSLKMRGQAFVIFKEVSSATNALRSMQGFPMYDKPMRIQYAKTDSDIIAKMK
- Test description: ITC; Se-Met protein; ITC: 50 mM Na-HEPES pH 7.5, 50 mM NaCl, 50 mM KCl, 2 mM MgCl2, 5 mM beta-mercaptoethanol, 20 C; protein in syringe, RNA in cell
- Condition description: protein: recombinant; tags: N-terminal 6xHis removed with TEV protease; hairpin, loop closed by C65-G76
Measurement label: Kd (nM)

>>> numeric_readout("CGAAUCCAUUGCACUCCGGAUUCG (structured_RNA) [hpII 24-mer (U1 snRNA hairpin II)]")
59.7
